B1: C22orf15 (parent)
chain: ITQSWQVSVRVQPRGRAHLLPNPY

variants of: B1; assay: protein stability index of a GFP-peptide fusion (GPS, HEK-293T) (PSI 1-6); higher = more stable; conditions: c terminus: a fixed tail appended;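 also: lentivirally expressed fusions sorted by FACS into six bins by GFP to DsRed ratio, PSI derived from sequencing read proportions per bin multiplied by bin number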
endpoint: protein stability index

INSERT INTO assay_data (mutation_code, recorded_value) VALUES
  ('V7L', 1.88),
  ('V11N', 2.51),
  ('P21I', 1.91),
  ('A17M', 2.57),
  ('R16C', 4.64),
  ('R10P', 1.83),
  ('V11F', 1.69),
  ('S4N', 1.73),
  ('V9P', 1.81),
  ('S8F', 2.21),
  ('A17I', 2.96),
  ('H18V', 2.19),
  ('S8N', 1.46);
